# experimental target: DNA topoisomerase 1 (Homo sapiens) (UniProt P11387)
# Sequence (P11387 whole entry): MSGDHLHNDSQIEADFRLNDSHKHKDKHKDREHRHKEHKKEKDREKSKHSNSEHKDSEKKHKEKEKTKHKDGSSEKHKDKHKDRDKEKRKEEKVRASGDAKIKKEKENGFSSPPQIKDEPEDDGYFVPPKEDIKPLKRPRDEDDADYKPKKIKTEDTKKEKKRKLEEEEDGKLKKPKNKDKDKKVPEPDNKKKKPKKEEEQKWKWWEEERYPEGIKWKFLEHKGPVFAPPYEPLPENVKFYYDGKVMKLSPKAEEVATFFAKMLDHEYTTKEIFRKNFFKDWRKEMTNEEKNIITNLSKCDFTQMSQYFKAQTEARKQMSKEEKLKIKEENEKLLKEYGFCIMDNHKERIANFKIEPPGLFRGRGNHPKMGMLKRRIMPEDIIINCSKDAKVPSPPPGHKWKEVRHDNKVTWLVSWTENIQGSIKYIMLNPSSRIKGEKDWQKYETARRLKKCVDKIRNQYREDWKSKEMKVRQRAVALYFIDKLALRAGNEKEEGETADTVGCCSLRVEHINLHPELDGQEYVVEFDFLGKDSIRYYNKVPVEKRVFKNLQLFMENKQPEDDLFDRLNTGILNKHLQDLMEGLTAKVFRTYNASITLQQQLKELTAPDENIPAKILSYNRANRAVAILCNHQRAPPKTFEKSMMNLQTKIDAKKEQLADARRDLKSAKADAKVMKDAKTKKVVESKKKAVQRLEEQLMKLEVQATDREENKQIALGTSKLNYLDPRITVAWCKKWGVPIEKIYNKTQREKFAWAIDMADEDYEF
# assay explanation: Inhibition of recombinant human topoisomerase 1-mediated relaxation of supercoiled pBR322 DNA at 100 uM measured after 30 mins by ethidium bromide staining based agarose gel electrophoresis relative to control
Each record here notes measured inhibition.
Number in %, nothing else.

Solved entries (count: 3):
smiles_notation=Oc1ccccc1-c1cc(-c2ccc(Cl)cc2)c2c(n1)-c1cccc(O)c1C2 recorded_measurement=8.4
smiles_notation=Oc1cccc(-c2cc(-c3cccc(F)c3)nc3c2Cc2c(O)cccc2-3)c1 recorded_measurement=9.8
smiles_notation=Oc1cccc(-c2cc(-c3ccc(Cl)cc3)c3c(n2)-c2cccc(O)c2C3)c1 recorded_measurement=0

Incoming: Give recorded inhibition with DNA topoisomerase 1 (Homo sapiens) (UniProt P11387) for the following molecule: Oc1ccc(-c2cc(-c3ccccc3)nc3c2Cc2cc(O)ccc2-3)cc1
Outgoing: 11.1

----------
# System: HeLa
# assay explanation: Antiproliferative activity against human HeLa cells measured after 72 hrs by EZ-Cytox assay
# Assay type: functional, cell-based
endpoint name: pIC50
Please report pIC50 as the negative decimal logarithm of the molar concentration, giving only the number.

Solved entries (count: 8):
smiles_notation=Oc1cccc(-c2cc(-c3ccccc3)c3c(n2)-c2cccc(O)c2C3)c1 recorded_measurement=5.21
smiles_notation=Oc1cccc(-c2cc(-c3ccc(Cl)cc3)nc3c2Cc2cc(O)ccc2-3)c1 recorded_measurement=5.96
smiles_notation=Oc1ccc(-c2cc(-c3ccccc3)c3c(n2)-c2ccc(O)cc2C3)cc1 recorded_measurement=5.57
smiles_notation=Oc1ccc2c(c1)Cc1c(-c3ccccc3Cl)cc(-c3ccccc3O)nc1-2 recorded_measurement=4.75
smiles_notation=Oc1ccc(-c2cc(-c3cccc(F)c3)nc3c2Cc2c(O)cccc2-3)cc1 recorded_measurement=5.14
smiles_notation=Oc1ccc2c(c1)Cc1c(-c3ccccc3O)cc(-c3ccccc3)nc1-2 recorded_measurement=4.56
smiles_notation=Oc1ccccc1-c1cc(-c2ccccc2Cl)nc2c1Cc1cccc(O)c1-2 recorded_measurement=5.95
smiles_notation=Oc1ccc(-c2cc(-c3ccccc3)c3c(n2)-c2cc(O)ccc2C3)cc1 recorded_measurement=5.56

// switching to the query compound
Incoming: Entry under review: Oc1cccc(-c2cc(-c3ccccc3Cl)c3c(n2)-c2cccc(O)c2C3)c1 . Reported pIC50?
Outgoing: 5.13

----------
# experimental target: DNA topoisomerase 2-alpha (Homo sapiens) (UniProt P11388)
# Sequence (P11388 whole entry): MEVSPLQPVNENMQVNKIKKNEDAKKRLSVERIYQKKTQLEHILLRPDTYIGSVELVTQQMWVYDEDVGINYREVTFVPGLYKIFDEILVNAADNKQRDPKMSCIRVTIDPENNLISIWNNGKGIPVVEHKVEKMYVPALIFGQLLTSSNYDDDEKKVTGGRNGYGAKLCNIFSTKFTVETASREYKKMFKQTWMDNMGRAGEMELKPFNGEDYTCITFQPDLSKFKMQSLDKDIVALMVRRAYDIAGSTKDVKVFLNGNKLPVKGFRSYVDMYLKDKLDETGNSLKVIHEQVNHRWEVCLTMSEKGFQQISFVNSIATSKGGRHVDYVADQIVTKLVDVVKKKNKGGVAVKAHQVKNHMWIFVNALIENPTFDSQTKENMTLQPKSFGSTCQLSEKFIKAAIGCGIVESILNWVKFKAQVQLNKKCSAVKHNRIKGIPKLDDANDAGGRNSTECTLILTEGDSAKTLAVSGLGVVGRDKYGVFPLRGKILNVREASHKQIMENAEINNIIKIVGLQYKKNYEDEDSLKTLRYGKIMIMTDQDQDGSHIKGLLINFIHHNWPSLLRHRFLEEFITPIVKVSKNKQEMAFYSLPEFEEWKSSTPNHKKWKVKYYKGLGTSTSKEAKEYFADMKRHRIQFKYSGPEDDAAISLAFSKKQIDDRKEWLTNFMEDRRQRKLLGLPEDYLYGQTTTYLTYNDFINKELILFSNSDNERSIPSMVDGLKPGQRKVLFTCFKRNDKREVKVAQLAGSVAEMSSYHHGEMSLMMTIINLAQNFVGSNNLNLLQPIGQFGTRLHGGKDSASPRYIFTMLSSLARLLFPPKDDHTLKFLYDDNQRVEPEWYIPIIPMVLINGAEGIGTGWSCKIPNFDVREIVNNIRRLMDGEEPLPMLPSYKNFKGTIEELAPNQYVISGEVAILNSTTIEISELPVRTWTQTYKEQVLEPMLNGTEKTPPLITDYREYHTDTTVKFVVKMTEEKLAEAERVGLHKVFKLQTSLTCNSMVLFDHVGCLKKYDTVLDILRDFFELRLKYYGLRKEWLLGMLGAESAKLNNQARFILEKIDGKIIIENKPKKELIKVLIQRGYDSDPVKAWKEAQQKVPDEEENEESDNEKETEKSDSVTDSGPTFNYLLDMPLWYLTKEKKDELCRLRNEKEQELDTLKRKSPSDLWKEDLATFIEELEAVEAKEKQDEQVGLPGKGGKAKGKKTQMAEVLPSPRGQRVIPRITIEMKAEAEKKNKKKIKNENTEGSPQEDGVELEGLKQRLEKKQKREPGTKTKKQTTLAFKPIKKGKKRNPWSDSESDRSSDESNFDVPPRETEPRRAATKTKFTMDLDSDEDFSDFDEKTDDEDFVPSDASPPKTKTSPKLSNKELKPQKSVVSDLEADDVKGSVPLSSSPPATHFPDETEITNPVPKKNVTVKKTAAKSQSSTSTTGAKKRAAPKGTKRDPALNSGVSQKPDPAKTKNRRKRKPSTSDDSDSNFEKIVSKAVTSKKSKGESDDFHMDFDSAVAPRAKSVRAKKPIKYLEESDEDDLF
# assay explanation: Inhibition of recombinant human topoisomerase 2alpha-mediated relaxation of supercoiled pBR322 DNA at 100 uM measured after 30 mins by ethidium bromide staining based agarose gel electrophoresis relative to control
Outcome label depends on inhibition relative to 80%: at/above gives condition met, below gives condition not met.

Example entries and their recorded answers appear below.
smiles_notation=Oc1ccc(-c2cc(-c3ccc(F)cc3)nc3c2Cc2cccc(O)c2-3)cc1 experimental_target="DNA topoisomerase 2-alpha (Homo sapiens) (UniProt P11388)" class="condition not met"
smiles_notation=Oc1cccc(-c2cc(-c3ccc(F)cc3)nc3c2Cc2cccc(O)c2-3)c1 experimental_target="DNA topoisomerase 2-alpha (Homo sapiens) (UniProt P11388)" class="condition not met"
smiles_notation=Oc1ccc(-c2cc(-c3ccc(F)cc3)nc3c2Cc2ccc(O)cc2-3)cc1 experimental_target="DNA topoisomerase 2-alpha (Homo sapiens) (UniProt P11388)" class="condition not met"
smiles_notation=Oc1ccc(-c2cc(-c3cccc(C(F)(F)F)c3)nc3c2Cc2cccc(O)c2-3)cc1 experimental_target="DNA topoisomerase 2-alpha (Homo sapiens) (UniProt P11388)" class="condition not met"
smiles_notation=Oc1ccc(-c2cc(-c3ccc(Cl)cc3)nc3c2Cc2cc(O)ccc2-3)cc1 experimental_target="DNA topoisomerase 2-alpha (Homo sapiens) (UniProt P11388)" class="condition met"

Incoming: Does the reported inhibition for Oc1cccc(-c2cc(-c3ccc(C(F)(F)F)cc3)nc3c2Cc2ccc(O)cc2-3)c1 fall at or above the 80% mark?
Outgoing: condition met

Incoming: Lookup Oc1cccc(-c2cc(-c3ccccc3Cl)c3c(n2)-c2cc(O)ccc2C3)c1
Outgoing: condition met

Incoming: Lookup Oc1ccc(-c2cc(-c3ccc(Cl)cc3)c3c(n2)-c2c(O)cccc2C3)cc1
Outgoing: condition met

Incoming: Lookup Oc1cccc(-c2cc(-c3ccccc3Cl)c3c(n2)-c2ccc(O)cc2C3)c1
Outgoing: condition met

Incoming: Lookup Oc1cccc(-c2cc(-c3cccc(Cl)c3)c3c(n2)-c2c(O)cccc2C3)c1
Outgoing: condition not met

Incoming: Lookup Oc1cccc(-c2cc(-c3ccccc3F)nc3c2Cc2c(O)cccc2-3)c1
Outgoing: condition not met

Incoming: Lookup Oc1ccc(-c2cc(-c3ccc(Cl)cc3)c3c(n2)-c2ccc(O)cc2C3)cc1
Outgoing: condition met

Incoming: Lookup Oc1ccc(-c2cc(-c3cccc(Cl)c3)c3c(n2)-c2ccc(O)cc2C3)cc1
Outgoing: condition not met

Incoming: Lookup Oc1ccc(-c2cc(-c3ccc(Cl)cc3)c3c(n2)-c2cccc(O)c2C3)cc1
Outgoing: condition met

Incoming: Lookup Oc1ccc(-c2cc(-c3ccc(Cl)cc3)nc3c2Cc2c(O)cccc2-3)cc1
Outgoing: condition not met

Incoming: Lookup Oc1ccccc1-c1cc(-c2ccccc2C(F)(F)F)nc2c1Cc1cccc(O)c1-2
Outgoing: condition met

Incoming: Lookup Oc1ccccc1-c1cc(-c2ccccc2)nc2c1Cc1cccc(O)c1-2
Outgoing: condition met

Incoming: Lookup Oc1ccc2c(c1)Cc1c(-c3ccccc3O)cc(-c3cccc(C(F)(F)F)c3)nc1-2
Outgoing: condition met

Incoming: Lookup Oc1ccc(-c2cc(-c3ccc(C(F)(F)F)cc3)nc3c2Cc2c(O)cccc2-3)cc1
Outgoing: condition met

----------
# experimental target: UniProt:P11388
# assay explanation: Inhibition of recombinant human topoisomerase 2alpha-mediated relaxation of supercoiled pBR322 DNA at 100 uM measured after 30 mins by ethidium bromide staining based agarose gel electrophoresis relative to control
endpoint name: inhibition

Solved entries (count: 3):
smiles_notation=Oc1cccc(-c2cc(-c3cccc(C(F)(F)F)c3)nc3c2Cc2ccc(O)cc2-3)c1 recorded_measurement=90.7%
smiles_notation=Oc1ccc(-c2cc(-c3cccc(Cl)c3)nc3c2Cc2ccc(O)cc2-3)cc1 recorded_measurement=71.3%
smiles_notation=Oc1ccccc1-c1cc(-c2ccc(Cl)cc2)c2c(n1)-c1cccc(O)c1C2 recorded_measurement=71.6%

Incoming: Entry under review: Oc1cccc(-c2cc(-c3ccccc3Cl)nc3c2Cc2cccc(O)c2-3)c1 . Reported inhibition?
Outgoing: 89.6%

Incoming: Lookup Oc1ccccc1-c1cc(-c2ccc(C(F)(F)F)cc2)nc2c1Cc1cccc(O)c1-2
Outgoing: 92.2%

----------
# experimental target: DNA topoisomerase 1 (Homo sapiens) (UniProt P11387)
# assay explanation: Inhibition of recombinant human topoisomerase 1-mediated relaxation of supercoiled pBR322 DNA at 100 uM measured after 30 mins by ethidium bromide staining based agarose gel electrophoresis relative to control
Each record here notes measured inhibition.
Number in %, nothing else.

Solved entries (count: 5):
smiles_notation=Oc1ccccc1-c1cc(-c2ccccc2C(F)(F)F)nc2c1Cc1c(O)cccc1-2 experimental_target="DNA topoisomerase 1 (Homo sapiens) (UniProt P11387)" u=% recorded_measurement=3.5
smiles_notation=Oc1ccccc1-c1cc(-c2ccccc2C(F)(F)F)nc2c1Cc1cccc(O)c1-2 experimental_target="DNA topoisomerase 1 (Homo sapiens) (UniProt P11387)" u=% recorded_measurement=0
smiles_notation=Oc1ccc(-c2cc(-c3ccccc3C(F)(F)F)nc3c2Cc2cc(O)ccc2-3)cc1 experimental_target="DNA topoisomerase 1 (Homo sapiens) (UniProt P11387)" u=% recorded_measurement=13.9
smiles_notation=Oc1cccc(-c2cc(-c3ccccc3Cl)c3c(n2)-c2cc(O)ccc2C3)c1 experimental_target="DNA topoisomerase 1 (Homo sapiens) (UniProt P11387)" u=% recorded_measurement=55.9
smiles_notation=Oc1ccc2c(c1)Cc1c(-c3ccccc3O)cc(-c3ccc(F)cc3)nc1-2 experimental_target="DNA topoisomerase 1 (Homo sapiens) (UniProt P11387)" u=% recorded_measurement=0

Incoming: Entry under review: Oc1cccc(-c2cc(-c3ccc(Cl)cc3)nc3c2Cc2ccc(O)cc2-3)c1 . Reported inhibition?
Outgoing: 16.7

Incoming: Lookup Oc1ccccc1-c1cc(-c2cccc(C(F)(F)F)c2)nc2c1Cc1c(O)cccc1-2
Outgoing: 0.3

Incoming: Lookup Oc1ccccc1-c1cc(-c2ccc(Cl)cc2)nc2c1Cc1cccc(O)c1-2
Outgoing: 0

Incoming: Lookup Oc1ccccc1-c1cc(-c2ccc(Cl)cc2)nc2c1Cc1c(O)cccc1-2
Outgoing: 14.5

----------
# Test system: HeLa
# assay explanation: Antiproliferative activity against human HeLa cells measured after 72 hrs by EZ-Cytox assay
# Type: functional, cell-based
Each record here notes measured IC50.

smiles_notation=Oc1ccc(-c2cc(-c3ccc(F)cc3)nc3c2Cc2cccc(O)c2-3)cc1 experimental_target=HeLa endpoint_name=IC50 recorded_measurement="> 50 µM"

Incoming: Entry under review: Oc1ccccc1-c1cc(-c2ccccc2)c2c(n1)-c1c(O)cccc1C2 . Reported IC50?
Outgoing: > 50 µM

Incoming: Lookup Oc1ccc(-c2cc(-c3ccccc3C(F)(F)F)nc3c2Cc2c(O)cccc2-3)cc1
Outgoing: > 50 µM
